- protocol notes: total protein half-life in vivo (active degradation + dilution); higher = more stable protein
- assay conditions: wild type E. coli NCM3722; growth: C-lim chemostat; doubling time 12 h
Please provide measured total protein half-life in vivo for the entries that follow.
Report as a plain number; the unit h is understood.

QUERY: Endpoint output: total protein half-life in vivo of `MIKKIFALPVIEQISPVLSRRKLDELDLIVVDHPQVKASFALQGAHLLSWKPAGEEEVLWLSNNTPFKNGVAIRGGVPVCWPWFGPAAQQGLPAHGFARNLPWTLKSHHEDADGVALTFELTQSEETKKFWPHDFTLLAHFRVGKTCEIDLESHGEFETTSALHTYFNVGDIAKVSVSGLGDRFIDKVNDAKENVLTDGIQTFPDRTDRVYLNPQDCSVINDEALNRIIAVGHQHHLNVVGWNPGPALSISMGDMPDDGYKTFVCVETAYASETQKVTKEKPAHLAQSIRVAKR` . Value?
RESULT: 13

QUERY: Endpoint output: total protein half-life in vivo of MAAINTKVKKAVIPVAGLGTRMLPATKAIPKEMLPLVDKPLIQYVVNECIAAGITEIVLVTHSSKNSIENHFDTSFELEAMLEKRVKRQLLDEVQSICPPHVTIMQVRQGLAKGLGHAVLCAHPVVGDEPVAVILPDVILDEYESDLSQDNLAEMIRRFDETGHSQIMVEPVADVTAYGVVDCKGVELAPGESVPMVGVVEKPKADVAPSNLAIVGRYVLSADIWPLLAKTPPGAGDEIQLTDAIDMLIEKETVEAYHMKGKSHDCGNKLGYMQAFVEYGIRHNTLGTEFKAWLEEEMGIKK [P0AEP3] . Value?
RESULT: 10.8

QUERY: Endpoint output: total protein half-life in vivo of `MKAFDLHRMAFDKVPFDFLGEVALRSLYTFVLVFLFLKMTGRRGVRQMSLFEVLIILTLGSAAGDVAFYDDVPMVPVLIVFITLALLYRLVMWLMAHSEKLEDLLEGKPVVIIEDGELAWSKLNNSNMTEFEFFMELRLRGVEQLGQVRLAILETNGQISVYFFEDDKVKPGLLILPSDCTQRYKVVPESADYACIRCSEIIHMKAGEKQLCPRCANPEWTKASRAKRVT` . Value?
RESULT: 11.8

QUERY: Endpoint output: total protein half-life in vivo of MWSEYSLEVVDAVARNGSFSAAAQELHRVPSAVSYTVRQLEEWLAVPLFERRHRDVELTAAGAWFLKEGRSVVKKMQITRQQCQQIANGWRGQLAIAVDNIVRPERTRQMIVDFYRHFDDVELLVFQEVFNGVWDALSDGRVELAIGATRAIPVGGRYAFRDMGMLSWSCVVASHHPLALMDGPFSDDTLRNWPSLVREDTSRTLPKRITWLLDNQKRVVVPDWESSATCISAGLCIGMVPTHFAKPWLNEGKWVALELENPFPDSACCLTWQQNDMSPALTWLLEYLGDSETLNKEWLREPEETPATGD [P0ACR2] . Value?
RESULT: 10.5

QUERY: Endpoint output: total protein half-life in vivo of `MLDQVCQLARNAGDAIMQVYDGTKPMDVVSKADNSPVTAADIAAHTVIMDGLRTLTPDVPVLSEEDPPGWEVRQHWQRYWLVDPLDGTKEFIKRNGEFTVNIALIDHGKPILGVVYAPVMNVMYSAAEGKAWKEECGVRKQIQVRDARPPLVVISRSHADAELKEYLQQLGEHQTTSIGSSLKFCLVAEGQAQLYPRFGPTNIWDTAAGHAVAAAAGAHVHDWQGKPLDYTPRESFLNPGFRVSIY` . Value?
RESULT: 10.6

QUERY: Endpoint output: total protein half-life in vivo of MSQFFYIHPDNPQQRLINQAVEIVRKGGVIVYPTDSGYALGCKIEDKNAMERICRIRQLPDGHNFTLMCRDLSELSTYSFVDNVAFRLMKNNTPGNYTFILKGTKEVPRRLLQEKRKTIGMRVPSNPIAQALLEALGEPMLSTSLMLPGSEFTESDPEEIKDRLEKQVDLIIHGGYLGQKPTTVIDLTDDTPVVVREGVGDVKPFL [P0AFR4] . Value?
RESULT: 12.2
